Test system: PSMA^+ PC-3 PIP tumors
Assay: MicroPET/CT imaging of mice transplanted with prostate cancer cell lines
Assay type: in vivo, nude mouse
Settings: 20 min after injection
property name: intake of mouse organ: Tumor (PIP) (% ID/g)

{"columns": ["molecule", "reading unit", "reported measurement"],
 "data": [
  ["Cc1ccc(CCCC(=O)NCCCCC(NC(=O)CN2CCN3CCN4CCN(CC2)CC(=O)[O][68Ga]([O]C(=O)C3)[O]C(=O)C4)C(=O)NCCOCCOCC(=O)N(CCCCC(NC(=O)NC(CCC(=O)O)C(=O)O)C(=O)O)CC(=O)O)cc1 (stereo not shown) [[^68Ga]1g]", "% ID/g", 4.42],
  ["O=C(O)CCC(NC(=O)NC(CCCCN(CC(=O)O)C(=O)COCCOCCNC(=O)C(CCCCNC(=O)CCCc1ccc(I)cc1)NC(=O)CN1CCN2CCN3CCN(CC1)CC(=O)[O][68Ga]([O]C(=O)C2)[O]C(=O)C3)C(=O)O)C(=O)O (stereo not shown) [[^68Ga]1h]", "% ID/g", 3.74],
  ["O=C(O)CCC(NC(=O)NC(CCCCN(CC(=O)O)C(=O)COCCNC(=O)C(CCCCNC(=O)CCCc1ccc(I)cc1)NC(=O)CN1CCN2CCN3CCN(CC1)CC(=O)[O][68Ga]([O]C(=O)C2)[O]C(=O)C3)C(=O)O)C(=O)O (stereo not shown) [[^68Ga]1k]", "% ID/g", 3.22],
  ["O=C(O)CCC(NC(=O)NC(CCCCN(CC(=O)O)C(=O)COCCOCCNC(=O)CN1CCN2CCN3CCN(CC1)CC(=O)[O][68Ga]([O]C(=O)C2)[O]C(=O)C3)C(=O)O)C(=O)O (stereo not shown) [[^68Ga]1e]", "% ID/g", 3.64]
]}
